molecular target: JARID1B (Homo sapiens, UniProt Q9UGL1); construct: The FLAG tagged full length JARID1B enzyme was expressed in Sf21 insect cells using FLAG-JARID1B baculoviruses; FLAG (N); made in house; host or cells: Sf21 insect cells (baculovirus); assay: FLAG-JARID1B histone demethylase assay with AlphaScreen detection (HTS and dose response); assay type: biochemical; conditions: validation of HTS actives; effect of compound in JARID1B AlphaScreen assay;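 also: FLAG-tagged JARID1B at 4 nM acting on a biotinylated H3K4me3 peptide, demethylation read by AlphaScreen luminescence, with hits checked against bio-H3K4me2 without enzyme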;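 also: compound tested at 20 µM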
Sequence (Q9UGL1 whole entry): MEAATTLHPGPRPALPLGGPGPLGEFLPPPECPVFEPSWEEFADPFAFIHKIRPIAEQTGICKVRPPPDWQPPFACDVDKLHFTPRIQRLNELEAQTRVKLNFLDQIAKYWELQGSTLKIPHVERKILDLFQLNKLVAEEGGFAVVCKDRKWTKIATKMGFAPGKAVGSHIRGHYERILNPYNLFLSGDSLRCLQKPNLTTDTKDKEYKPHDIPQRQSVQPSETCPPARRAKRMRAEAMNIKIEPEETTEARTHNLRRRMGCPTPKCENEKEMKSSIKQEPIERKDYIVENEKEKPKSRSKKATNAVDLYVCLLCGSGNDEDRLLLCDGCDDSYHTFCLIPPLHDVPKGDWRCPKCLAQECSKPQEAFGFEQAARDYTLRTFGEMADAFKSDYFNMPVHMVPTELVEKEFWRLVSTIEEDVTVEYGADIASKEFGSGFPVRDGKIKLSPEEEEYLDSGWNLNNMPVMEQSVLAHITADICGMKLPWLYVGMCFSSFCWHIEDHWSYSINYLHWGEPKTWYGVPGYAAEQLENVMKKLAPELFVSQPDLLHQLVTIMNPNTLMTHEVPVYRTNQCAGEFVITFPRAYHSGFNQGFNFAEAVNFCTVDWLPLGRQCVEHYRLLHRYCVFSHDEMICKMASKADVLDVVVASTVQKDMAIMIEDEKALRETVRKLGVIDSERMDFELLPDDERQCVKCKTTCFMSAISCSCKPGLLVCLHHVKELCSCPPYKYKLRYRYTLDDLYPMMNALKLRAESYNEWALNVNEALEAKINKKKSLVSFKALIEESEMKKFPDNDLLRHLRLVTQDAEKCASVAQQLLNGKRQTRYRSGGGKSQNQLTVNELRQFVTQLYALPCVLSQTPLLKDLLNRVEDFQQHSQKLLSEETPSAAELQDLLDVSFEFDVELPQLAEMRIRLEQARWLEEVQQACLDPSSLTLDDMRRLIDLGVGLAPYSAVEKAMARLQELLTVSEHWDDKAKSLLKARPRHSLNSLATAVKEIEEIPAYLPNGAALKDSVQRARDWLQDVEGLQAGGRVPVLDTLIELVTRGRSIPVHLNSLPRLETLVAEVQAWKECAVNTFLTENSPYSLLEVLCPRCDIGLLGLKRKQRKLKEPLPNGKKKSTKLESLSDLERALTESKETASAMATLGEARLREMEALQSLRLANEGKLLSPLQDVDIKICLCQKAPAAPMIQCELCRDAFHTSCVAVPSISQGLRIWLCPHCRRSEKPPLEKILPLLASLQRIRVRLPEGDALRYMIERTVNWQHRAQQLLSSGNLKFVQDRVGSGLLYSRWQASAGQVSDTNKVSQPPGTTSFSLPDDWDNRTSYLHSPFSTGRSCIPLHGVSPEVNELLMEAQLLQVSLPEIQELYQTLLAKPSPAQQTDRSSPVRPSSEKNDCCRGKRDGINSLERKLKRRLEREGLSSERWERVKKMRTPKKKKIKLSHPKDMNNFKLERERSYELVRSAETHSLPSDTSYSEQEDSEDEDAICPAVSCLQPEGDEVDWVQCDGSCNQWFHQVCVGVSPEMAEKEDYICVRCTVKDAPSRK
Where a name gives a salt, the structure may show the parent alone.
parameter measured: Assay Signal (percent) (%)
Unit % implied. Number only.

INSERT INTO assay_data (compound, reading) VALUES
  ('CN(C)[C@@H]1C(O)=C(C(N)=O)C(=O)[C@@]2(O)C(O)=C3C(=O)c4c(O)ccc(Cl)c4[C@@](C)(O)[C@H]3C[C@@H]12 [YU033743, AUREOMYCIN, reference compound]', 28.24),
  ('COc1ccc(Cl)cc1NC(=S)Nn1cnnc1 [YU148611]', 15.61),
  ('CN(C)C(=S)SSC(=S)N(C)C [YU034426, THIRAM, reference compound]', 66.73),
  ('O=Cc1ccc(-c2ccc(S(=O)(=O)O)cc2)o1 [YU146454]', 64.68),
  ('Cc1cccc(NC(c2ccncc2)c2ccc3cccnc3c2O)c1 (stereo not shown) [YU172170]', 65.09);

Qu. Return Assay Signal (percent) for the following compound: C[C@@](Cc1ccc(O)c(O)c1)(NN)C(=O)O [YU034292, CARBIDOPA, reference compound]
Ans. 80.27

Qu. Return Assay Signal (percent) for the following compound: c1ccc(-c2nc3ccccn3c2Nc2ccc3c(c2)OCCO3)nc1 [YU172999]
Ans. 98.42

Qu. Return Assay Signal (percent) for the following compound: O=C(NC1CCCCC1)c1ccc(NC(=O)c2ccccc2O)cc1 [YU154737]
Ans. 28.23

Qu. Return Assay Signal (percent) for the following compound: O=C(O)CC(CC(=O)Nc1cc(C(F)(F)F)ccc1N1CCOCC1)c1ccccc1 (stereo not shown) [YU016748]
Ans. 19.64

Qu. Return Assay Signal (percent) for the following compound: COc1ccc(C)cc1NC(c1cccnc1)c1ccc2cccnc2c1O (stereo not shown) [YU172175]
Ans. 48.09

Qu. Return Assay Signal (percent) for the following compound: CCOc1cccc(CNc2ccc(N3CCCC3)cc2)c1 [YU149839]
Ans. 31.65

Qu. Return Assay Signal (percent) for the following compound: Cc1cccc(NC(c2cccnc2)c2ccc3cccnc3c2O)n1 (stereo not shown) [YU172179]
Ans. 63.74

Qu. Return Assay Signal (percent) for the following compound: CC(C)NCC(O)c1ccc(O)c(O)c1 (stereo not shown) [YU033874, ISOPROTERENOL HYDROCHLORIDE, reference compound]
Ans. 32.81

Qu. Return Assay Signal (percent) for the following compound: O=c1oc2c(O)c(O)cc3c(=O)oc4c(O)c(O)cc1c4c23 [YU034320, ELLAGIC ACID, reference compound]
Ans. 12.08

Qu. Return Assay Signal (percent) for the following compound: N#CC(=Cc1ccncc1)c1nc2cc(C(F)(F)F)ccc2s1 (single isomer, unassigned) [YU153803]
Ans. 93.75

Qu. Return Assay Signal (percent) for the following compound: CC(C)(C#N)O[C@@H]1O[C@H](CO)[C@@H](O)[C@H](O)[C@H]1O [YU155312, LINAMARIN, reference compound]
Ans. 92.68
